Recorded Emax values for a group of molecules are listed next.
# experimental.system: M4 muscarinic receptor (Homo sapiens, UniProt P08173)
# Construct: expressed in transfected cells; host or cells: CHO (M4-CHO)
# Sequence (P08173 whole entry): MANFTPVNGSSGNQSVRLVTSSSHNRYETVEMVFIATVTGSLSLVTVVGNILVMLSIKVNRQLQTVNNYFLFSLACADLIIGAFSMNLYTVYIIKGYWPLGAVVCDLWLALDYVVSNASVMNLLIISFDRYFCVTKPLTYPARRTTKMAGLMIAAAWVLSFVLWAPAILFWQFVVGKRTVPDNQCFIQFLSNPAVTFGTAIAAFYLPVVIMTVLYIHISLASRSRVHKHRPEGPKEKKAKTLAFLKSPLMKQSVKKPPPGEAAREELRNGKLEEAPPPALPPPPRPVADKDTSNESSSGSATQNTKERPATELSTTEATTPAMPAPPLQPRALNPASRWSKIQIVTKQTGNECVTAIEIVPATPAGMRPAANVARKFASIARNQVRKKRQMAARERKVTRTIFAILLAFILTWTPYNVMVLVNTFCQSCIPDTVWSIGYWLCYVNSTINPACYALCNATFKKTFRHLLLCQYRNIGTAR
# protocol.text: Functional mobilization of intracellular calcium (FLIPR), M4-CHO cells
# Type: cell-based
# stated.conditions: 100% efficacy is the maximum response obtained with the Carbachol control

molecule: O=C1Nc2ccccc2C2(CCN(CC3CCCCC3)CC2)O1
Emax: 25 to 100%
--
molecule: CCON=C1CCC(N2CCC3(CC2)OC(=O)Nc2ccccc23)CC1 (stereo not shown)
Emax: 25 to 100%
--
molecule: O=C1Nc2ccccc2C2(CCN(CC3CCCOC3)CC2)O1 (stereo not shown)
Emax: 25 to 100%
--
molecule: O=C1Nc2ccccc2C2(CCN(C3CCCCCC3)CC2)O1
Emax: 25 to 100%
--
molecule: O=C1CCC(N2CCC3(CC2)OC(=O)Nc2ccccc23)CC1
Emax: 25 to 100%
--
molecule: CN1C(=O)OC2(CCN(C3CCCCCC3)CC2)c2ccccc21
Emax: 25 to 100%
--
molecule: O=C1Nc2ccccc2C2(CCN(C3CCNCC3)CC2)O1
Emax: < 25%
--
molecule: O=C1Nc2ccccc2C2(CCN(C3CCN(c4cnccn4)CC3)CC2)O1
Emax: 25 to 100%
--
molecule: O=C1Nc2ccccc2C2(CCN(C3CC4CCC(C4)C3)CC2)O1 (stereo not shown)
Emax: 25 to 100%
--
molecule: CCOC(=O)N1CCC(CN2CCC3(CC2)OC(=O)Nc2ccccc23)CC1
Emax: 25 to 100%
--
molecule: CCOC(=O)N1CCC(N2CCC3(CC2)OC(=O)Nc2ccccc23)CC1
Emax: 25 to 100%
--
molecule: CC(C)CCN1CCC2(CC1)OC(=O)Nc1ccccc12
Emax: 25 to 100%
--
molecule: CCC(C)(C)C1CCC(N2CCC3(CC2)OC(=O)Nc2ccccc23)CC1 (stereo not shown)
Emax: < 25%

###

Recorded Emax values for a group of compounds are listed next.
# experimental.system: M2 muscarinic receptor (Homo sapiens, UniProt P08172)
# Construct: expressed in transfected cells; host or cells: CHO (M2-CHO)
# Sequence (P08172 whole entry): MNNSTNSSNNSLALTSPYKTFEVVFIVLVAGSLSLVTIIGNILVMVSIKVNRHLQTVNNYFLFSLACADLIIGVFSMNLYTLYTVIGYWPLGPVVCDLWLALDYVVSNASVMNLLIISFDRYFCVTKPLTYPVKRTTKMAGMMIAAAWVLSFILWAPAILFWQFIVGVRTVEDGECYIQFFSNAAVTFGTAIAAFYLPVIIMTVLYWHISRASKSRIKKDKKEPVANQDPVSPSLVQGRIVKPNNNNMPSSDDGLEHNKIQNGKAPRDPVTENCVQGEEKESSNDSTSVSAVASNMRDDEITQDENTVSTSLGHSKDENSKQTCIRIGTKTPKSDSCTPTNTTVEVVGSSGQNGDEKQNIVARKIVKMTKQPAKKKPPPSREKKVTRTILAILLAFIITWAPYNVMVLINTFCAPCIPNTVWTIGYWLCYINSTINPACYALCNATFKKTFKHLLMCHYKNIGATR
# protocol.text: Functional mobilization of intracellular calcium (FLIPR), M2-CHO cells
# Format: cell-based
# stated.conditions: 100% efficacy is the maximum response obtained with the Carbachol control

compound: CCC(C)(C)C1CCC(N2CCC3(CC2)OC(=O)Nc2ccccc23)CC1 (stereo not shown) [Compound 35]
experimental.system: M2 muscarinic receptor (Homo sapiens, UniProt P08172)
Emax: < 25%
//
compound: O=C1Nc2ccccc2C2(CCN(C3CCCCCC3)CC2)O1 [Compound 5]
experimental.system: M2 muscarinic receptor (Homo sapiens, UniProt P08172)
Emax: 25 to 100%
//
compound: CC(C)CCN1CCC2(CC1)OC(=O)Nc1ccccc12 [Compound 76]
experimental.system: M2 muscarinic receptor (Homo sapiens, UniProt P08172)
Emax: 25 to 100%
//
compound: O=C1Nc2ccccc2C2(CCN(C3CCN(c4cnccn4)CC3)CC2)O1 [Compound 74]
experimental.system: M2 muscarinic receptor (Homo sapiens, UniProt P08172)
Emax: 25 to 100%
//
compound: O=C1CCC(N2CCC3(CC2)OC(=O)Nc2ccccc23)CC1 [Compound 64]
experimental.system: M2 muscarinic receptor (Homo sapiens, UniProt P08172)
Emax: 25 to 100%
//
compound: O=C1Nc2ccccc2C2(CCN(CC3CCCOC3)CC2)O1 (stereo not shown) [Compound 11]
experimental.system: M2 muscarinic receptor (Homo sapiens, UniProt P08172)
Emax: 25 to 100%
//
compound: CN1C(=O)OC2(CCN(C3CCCCCC3)CC2)c2ccccc21 [Compound 65]
experimental.system: M2 muscarinic receptor (Homo sapiens, UniProt P08172)
Emax: < 25%
//
compound: CCOC(=O)N1CCC(N2CCC3(CC2)OC(=O)Nc2ccccc23)CC1 [Compound 62]
experimental.system: M2 muscarinic receptor (Homo sapiens, UniProt P08172)
Emax: 25 to 100%
//
compound: CCON=C1CCC(N2CCC3(CC2)OC(=O)Nc2ccccc23)CC1 (stereo not shown) [Compound 3]
experimental.system: M2 muscarinic receptor (Homo sapiens, UniProt P08172)
Emax: 25 to 100%
//
compound: O=C1Nc2ccccc2C2(CCN(C3CCNCC3)CC2)O1 [Compound 49]
experimental.system: M2 muscarinic receptor (Homo sapiens, UniProt P08172)
Emax: < 25%
//
compound: O=C1Nc2ccccc2C2(CCN(CC3CCCCC3)CC2)O1 [Compound 27]
experimental.system: M2 muscarinic receptor (Homo sapiens, UniProt P08172)
Emax: 25 to 100%
//
compound: CCOC(=O)N1CCC(CN2CCC3(CC2)OC(=O)Nc2ccccc23)CC1 [Compound 13]
experimental.system: M2 muscarinic receptor (Homo sapiens, UniProt P08172)
Emax: 25 to 100%
//
compound: O=C1Nc2ccccc2C2(CCN(C3CC4CCC(C4)C3)CC2)O1 (stereo not shown) [Compound 67]
experimental.system: M2 muscarinic receptor (Homo sapiens, UniProt P08172)
Emax: 25 to 100%

###

# experimental.system: M1 muscarinic receptor (Homo sapiens, UniProt P11229)
# Construct: expressed in transfected cells; host or cells: CHO (M1-CHO)
# Sequence (P11229 1-460): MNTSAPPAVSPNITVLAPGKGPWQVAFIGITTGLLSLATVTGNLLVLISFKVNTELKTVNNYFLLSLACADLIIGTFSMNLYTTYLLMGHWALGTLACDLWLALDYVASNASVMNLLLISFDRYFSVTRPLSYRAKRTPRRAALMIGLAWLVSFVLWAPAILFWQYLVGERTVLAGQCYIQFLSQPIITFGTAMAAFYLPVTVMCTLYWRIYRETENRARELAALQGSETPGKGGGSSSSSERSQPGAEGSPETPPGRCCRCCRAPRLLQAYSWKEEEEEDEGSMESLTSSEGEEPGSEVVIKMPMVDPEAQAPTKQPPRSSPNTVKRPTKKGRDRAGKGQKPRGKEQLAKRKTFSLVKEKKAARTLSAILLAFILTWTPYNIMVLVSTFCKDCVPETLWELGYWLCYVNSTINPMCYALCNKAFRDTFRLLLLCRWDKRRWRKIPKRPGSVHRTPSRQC
# protocol.text: Functional mobilization of intracellular calcium (FLIPR), M1-CHO cells
# Assay type: cell-based
# stated.conditions: 100% efficacy is the maximum response obtained with the Carbachol control
assay.readout: Emax

molecule: CCC(C)(C)C1CCC(N2CCC3(CC2)OC(=O)Nc2ccccc23)CC1 (stereo not shown) [Compound 35]
recorded.measurement: 25 to 100%
--
molecule: CC(C)CCN1CCC2(CC1)OC(=O)Nc1ccccc12 [Compound 76]
recorded.measurement: 25 to 100%
--
molecule: O=C1Nc2ccccc2C2(CCN(CC3CCCCC3)CC2)O1 [Compound 27]
recorded.measurement: 25 to 100%
--
molecule: CCOC(=O)N1CCC(N2CCC3(CC2)OC(=O)Nc2ccccc23)CC1 [Compound 62]
recorded.measurement: 25 to 100%
--
molecule: CCON=C1CCC(N2CCC3(CC2)OC(=O)Nc2ccccc23)CC1 (stereo not shown) [Compound 3]
recorded.measurement: 25 to 100%
--
molecule: O=C1Nc2ccccc2C2(CCN(CC3CCCOC3)CC2)O1 (stereo not shown) [Compound 11]
recorded.measurement: 25 to 100%
--
molecule: O=C1Nc2ccccc2C2(CCN(C3CCN(c4cnccn4)CC3)CC2)O1 [Compound 74]
recorded.measurement: > 100%
--
molecule: O=C1Nc2ccccc2C2(CCN(C3CCCCCC3)CC2)O1 [Compound 5]
recorded.measurement: 25 to 100%
--
molecule: O=C1Nc2ccccc2C2(CCN(C3CC4CCC(C4)C3)CC2)O1 (stereo not shown) [Compound 67]
recorded.measurement: 25 to 100%
--
molecule: CN1C(=O)OC2(CCN(C3CCCCCC3)CC2)c2ccccc21 [Compound 65]
recorded.measurement: < 25%
--
molecule: O=C1Nc2ccccc2C2(CCN(C3CCNCC3)CC2)O1 [Compound 49]
recorded.measurement: 25 to 100%
--
molecule: O=C1CCC(N2CCC3(CC2)OC(=O)Nc2ccccc23)CC1 [Compound 64]
recorded.measurement: 25 to 100%
--
molecule: CCOC(=O)N1CCC(CN2CCC3(CC2)OC(=O)Nc2ccccc23)CC1 [Compound 13]
recorded.measurement: 25 to 100%
